# assayed system: Amine oxidase [flavin-containing] A (Homo sapiens, UniProt P21397)
# Sequence (P21397 whole entry): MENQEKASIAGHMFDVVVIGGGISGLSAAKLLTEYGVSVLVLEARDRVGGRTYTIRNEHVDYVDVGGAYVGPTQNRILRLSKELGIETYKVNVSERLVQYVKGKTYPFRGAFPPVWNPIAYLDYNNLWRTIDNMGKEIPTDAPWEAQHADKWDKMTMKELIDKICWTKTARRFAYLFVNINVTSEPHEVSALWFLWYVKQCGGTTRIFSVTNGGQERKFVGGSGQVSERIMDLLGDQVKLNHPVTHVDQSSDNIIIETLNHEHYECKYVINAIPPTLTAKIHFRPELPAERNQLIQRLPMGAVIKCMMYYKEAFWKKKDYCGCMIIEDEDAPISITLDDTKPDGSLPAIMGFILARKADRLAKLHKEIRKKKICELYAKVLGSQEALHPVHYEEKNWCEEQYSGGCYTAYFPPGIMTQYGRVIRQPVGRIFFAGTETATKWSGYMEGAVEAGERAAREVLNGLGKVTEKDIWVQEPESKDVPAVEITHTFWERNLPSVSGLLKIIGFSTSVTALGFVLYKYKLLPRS
# procedure summary: Inhibition of human recombinant MAOA by fluorimetric method
IC50 less than 5 µM is Y; IC50 greater than or equal to 5 µM is N.

These solved cases illustrate the format of a correct answer.
O=C1CCCCC1Oc1ccc2ccc(=O)oc2c1 (centres undefined) :: N
COc1cc(OC2CCCCC2=O)cc2oc(=O)ccc12 (centres undefined) :: N
COc1c(OC2CCCCC2=O)ccc2c(C)cc(=O)oc12 (centres undefined) :: N
CC(=O)COc1ccc2c3c(c(=O)oc2c1C)CCC3 :: Y
Cc1cc(=O)oc2c(C)c(OC3CCCC3=O)ccc12 (centres undefined) :: Y

Enquiry: hey, is IC50 for "COc1c(OCC(C)=O)ccc2c1oc(=O)c1ccccc12" lower than 5 µM or not?
Return: N

Enquiry: Follow-up entry: "Cc1c(O)ccc2c3c(c(=O)oc12)CCCC3"
Return: N

Enquiry: Now the molecule "O=c1ccc2cc3c4c(oc3cc2o1)CC4"
Return: N

Enquiry: Thanks! And "COc1c(OCC(C)=O)ccc2c3c(c(=O)oc12)CCCC3" ?
Return: Y

Enquiry: // query: "CC(=O)COc1ccc2c(oc(=O)c3ccccc32)c1C"
Return: Y

Enquiry: What about this molecule? "COc1c(OCC(C)=O)ccc2cc(NC(C)=O)c(=O)oc12"
Return: N

Enquiry: Quick one: Cc1cc(=O)oc2c(C)c(OC3CCCCC3=O)ccc12 (centres undefined)
Return: Y

Enquiry: Now give it for "COc1c(O)ccc2c3c(c(=O)oc12)CCC3" too.
Return: N

Enquiry: // query: Cc1cc(=O)oc2cc(OC3CCCC3=O)ccc12 (centres undefined)
Return: Y

###

Please respond with reported Ratio IC50 for every item in the list.
# Species on record: Homo sapiens
# procedure summary: Selectivity ratio of IC50 for human recombinant MAOA to IC50 for human recombinant MAOB

Please state Ratio IC50 for every compound in the list that follows.
1. COc1c(O)ccc2c3c(c(=O)oc12)CCC3
2. Cc1c(O)ccc2c3c(c(=O)oc12)CCCC3
3. COc1c(OC2CCCCC2=O)ccc2c(C)cc(=O)oc12 (stereo not given)
4. O=c1ccc2cc3c4c(oc3cc2o1)CC4

Return:
1: < 0.63; 2: < 0.6; 3: < 0.31; 4: < 0.58

Enquiry: Can you share its Ratio IC50? I mean this compound: COc1cc(OC2CCCCC2=O)cc2oc(=O)ccc12 (stereo not given)
Return: < 0.41
